src = patent EP1149836B1

experiment: half-life of dinalbuphine sebacoyl ester in rabbit blood, HPLC; type: in vitro ADME; conditions: rabbit plasma, n=3, mean± S.E; read-out: Elimination Half-life
measure: half-life (min)
Output spec: scalar in min, unitless text.

## Task Give the value of half-life reported for the following: O=C(CCCCCCCCC(=O)Oc1ccc2c3c1O[C@H]1[C@@H](O)CC[C@@]4(O)[C@@H](C2)N(CC2CCC2)CC[C@]314)Oc1ccc2c3c1O[C@H]1[C@@H](O)CC[C@@]4(O)[C@@H](C2)N(CC2CCC2)CC[C@]314
## Result 6.98

----------
assay: half-life of dinalbuphine sebacoyl ester in human blood, HPLC; type: in vitro ADME; conditions: red blood cells; human red blood cell, n=3; read-out: Elimination Half-life
measure: half-life (min)
Output spec: scalar in min, unitless text.

## Task Give the value of half-life reported for the following: O=C(CCCCCCCCC(=O)Oc1ccc2c3c1O[C@H]1[C@@H](O)CC[C@@]4(O)[C@@H](C2)N(CC2CCC2)CC[C@]314)Oc1ccc2c3c1O[C@H]1[C@@H](O)CC[C@@]4(O)[C@@H](C2)N(CC2CCC2)CC[C@]314
## Result 7.7
